study target: T1, GDF11 (UniProt O95390 299-407)
T1 construct: also called BMP11
T1 sequence (looked up): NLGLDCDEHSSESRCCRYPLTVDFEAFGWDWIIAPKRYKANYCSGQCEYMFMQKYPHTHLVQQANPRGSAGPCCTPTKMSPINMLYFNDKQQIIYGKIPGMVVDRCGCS
experiment: SPR (Biacore); receptor-Fc captured by anti-hFc antibody, ligand injected
measured attribute: koff (s⁻¹)
Your answer should be a plain number; it is taken to be in s⁻¹.

[Q] Which koff is listed for ActRIIB(20-134)-hFc (Fc fusion, also called ActRIIB-hFc) GRGEAETRECIYYNANWELERTNQSGLERCEGEQDKRLHCYASWRNSSGTIELVKKGCWLDDFNCYDRQECVATEENPQVYFCCCEGNFCNERFTHLPEAGGPEVTYEPPPTAPTGGGTHTCPPCPAPELLGGPSVFLFPPKPKDTLMISRTPEVTCVVVDVSHEDPEVKFNWYVDGVEVHNAKTKPREEQYNSTYRVVSVLTVLHQDWLNGKEYKCKVSNKALPVPIEKTISKAKGQPREPQVYTLPPSREEMTKNQVSLTCLVKGFYPSDIAVEWESNGQPENNYKTTPPVLDSDGSFFLYSKLTVDKSRWQQGNVFSCSVMHEALHNHYTQKSLSLSPGK ?
[A] 0.000113
